FYI, the data here is from PubChem BioAssay (EPA / NIEHS).

# Read-out: MYC, MYC (gene 4609)
# experimental details: LTEA_HepaRG_MYC: Life Technologies and Expression Analysis (LTEA) Assay for MYC using HepaRG (AID 2283518)
# assay context: mRNA level, 48 h; actives raise or lower the signal
Calls of active or inactive are those of the source. The calls were made as follows: active = hit-call score of the fitted dose curve at least 0.9, where 1 is the maximum; inactive = score below 0.9.
Labels: active, inactive

CCc1cc(SCc2sc(-c3ccc(C(F)(F)F)cc3)nc2CN2CCN(c3ccc(OC)cc3)CC2)ccc1OCC(=O)O    active
O=c1[nH]c2ccc(S(=O)CCN3CCC(Cc4ccc(F)cc4)CC3)cc2o1 (stereo not given)    active
O=C1OC(=O)C2C3C=CC(C3)C12 (stereo not given)    inactive
O=C(O)c1cccc(Oc2ccccc2)c1    inactive
O=c1n(CC2CO2)c(=O)n(CC2CO2)c(=O)n1CC1CO1 (stereo not given)    inactive
CCOc1cccc(-n2cc(C(=O)N3CCN(c4cc(C(=O)O)c5ccccc5c4)CC3)nc2-c2ccc(C)cc2)c1    inactive
O=C(NS(=O)(=O)/C=C/c1ccccc1)c1ccc(F)cc1Cl    inactive
CCN(C(=O)c1cc(C)cc(OC[C@H](C)Nc2ccncc2)c1)C(C)C    inactive
CC(C)CCCCCCCOC(=O)CCCCC(=O)OCCCCCCCC(C)C    inactive
CCn1nc(Cc2ccccc2)cc1C1CCN(C[C@H]2C[C@H](N(C)[C@@H](C(=O)O)C(C)C)C[C@@H]2c2cccc(F)c2)CC1    inactive
CCCCC(CC)COC(=O)c1ccc(C(=O)OCC(CC)CCCC)cc1 (stereo not given)    inactive
O=C(O)c1cc(N=Nc2ccc(S(=O)(=O)Nc3ccccn3)cc2)ccc1O    inactive
CC(C)CC(C)(O)C#CC(C)(O)CC(C)C (stereo not given)    inactive
O=C(O)c1cccc(N(Cc2cccnc2)c2ccc(OC(F)F)c(OC(F)F)c2)c1    inactive
CC(C)=CCC/C(C)=C/CO    inactive
